Overview of recorded Fold change in RNA expression between the ON state and the OFF state for various molecules
- Tested on: Renilla luciferase RNA
- protocol.notes: Barcoded aptazyme variant library screen: un-cleaved Renilla luciferase RNA by barcode read counts, HEK293-T cells
- Assay type: cell-based
- reported.conditions: un-cleaved Renilla luciferase RNA, HEK293-T cells cultured with 1 mM theophylline (ON) over without theophylline (OFF); barcode read counts, triplicate
Only the number, expressed in fold, is required.

RA228 (nucleic acid, chemistry not given here) DNA: GCGCGTCCTGGATTCGCGGAAACGCGTACATCCAGCTGGGAATACCAGCATCGTCTTGATGCCCTTGGAAGTCCACGAGTCCCAAATAGGACGAAACGCGC; 1.1
RA231 (nucleic acid, expressed or natural sequence) DNA: GCGAGAATACCAGCATCGTCTTGATGCCCTTGGAAGTCTCGCGTCCTGGATTCGCGGAAACGCGTACATCCAGCTGACGAGTCCCAAATAGGACGAAACGCGC; 1.1
RA024 (nucleic acid, expressed or natural sequence) DNA: GCGCGTCCTGGATTCGCGGAAACGCGTACATCCAGCTGACGAGTCCCAAATAGGACAGTGATACCAGCATCGTCTTGATGCCCTTGGCAGCACTGAAACGCGC; 2.6
RA135 (nucleic acid, expressed or natural sequence) DNA: GCGCGTCCTGGATTCGCGGAAACGAGTGATACCAGCATCGTCTTGATGCCCTTGGCAGCACTCGTACATCCAGCTGACGAGTCCCAAATAGGACGAAACGCGC; 1.4

Field request: Fold change in RNA expression between the ON state and the OFF state | item: RA274 (nucleic acid, expressed or natural sequence) DNA: GCGCGTCCTGGATTCGCGGAAACGCGTACATCCAGCTGACGAGTCCCAAAGAGAATACCAGCATCGTCTTGATGCCCTTGGAAGTCTCTAGGACGAAACGCGC 1.0

I would be grateful if you could share the reported Fold change in RNA expression between the ON state and the OFF state for RA067 (nucleic acid, expressed or natural sequence) DNA: GCGCGTCCTGGATTCGCGGAAACGCGTACATCCAGTGATACCAGCATCGTCTTGATGCCCTTGGCAGCACTAGCTGACGAGTCCCAAATAGGACGAAACGCGC . 1.8

For the molecule shown here, RA222 (nucleic acid, expressed or natural sequence) DNA: GCGCGTCCTGGATTCGCGGAAACGCGTACATCCAGCTGACAGAATACCAGCATCGTCTTGATGCCCTTGGAAGTCTGAGTCCCAAATAGGACGAAACGCGC , give the reported Fold change in RNA expression between the ON state and the OFF state. 1.2

Quick one: Fold change in RNA expression between the ON state and the OFF state of RA156 (nucleic acid, expressed or natural sequence) DNA: GCCGGAATACCAGCATCGTCTTGATGCCCTTGGAAGTCCGGCGCGTCCTGGATTCGCGGAAACGCGTACATCCAGCTGACGAGTCCCAAATAGGACGAAACGCGC ? 1.3

Tell me the measured Fold change in RNA expression between the ON state and the OFF state of RA006 (nucleic acid, expressed or natural sequence) DNA: GCGCGTCCTGGATTCGCGGAAACGCGTACATCCAGCTGACGAGTCCCAAATAGGACGAAACGAGTGATACCAGCATCGTCTTGATGCCCTTGGCAGCACTCGC , please. 5.0

Which Fold change in RNA expression between the ON state and the OFF state is listed for RA016 (nucleic acid, expressed or natural sequence) DNA: GCGCGTCCTGGATGAGAATACCAGCATCGTCTTGATGCCCTTGGAAGTCTCTCGCGGAAACGCGTACATCCAGCTGACGAGTCCCAAATAGGACGAAACGCGC ? 2.8
